molecular target: α-Glucosidase type 1 from baker's yeast (Saccharomyces cerevisiae, UniProt P53341); construct: purchased Sigma Aldrich (Pty) Ltd; experiment: biochemical; assay type: biochemical
Sequence (P53341 whole entry): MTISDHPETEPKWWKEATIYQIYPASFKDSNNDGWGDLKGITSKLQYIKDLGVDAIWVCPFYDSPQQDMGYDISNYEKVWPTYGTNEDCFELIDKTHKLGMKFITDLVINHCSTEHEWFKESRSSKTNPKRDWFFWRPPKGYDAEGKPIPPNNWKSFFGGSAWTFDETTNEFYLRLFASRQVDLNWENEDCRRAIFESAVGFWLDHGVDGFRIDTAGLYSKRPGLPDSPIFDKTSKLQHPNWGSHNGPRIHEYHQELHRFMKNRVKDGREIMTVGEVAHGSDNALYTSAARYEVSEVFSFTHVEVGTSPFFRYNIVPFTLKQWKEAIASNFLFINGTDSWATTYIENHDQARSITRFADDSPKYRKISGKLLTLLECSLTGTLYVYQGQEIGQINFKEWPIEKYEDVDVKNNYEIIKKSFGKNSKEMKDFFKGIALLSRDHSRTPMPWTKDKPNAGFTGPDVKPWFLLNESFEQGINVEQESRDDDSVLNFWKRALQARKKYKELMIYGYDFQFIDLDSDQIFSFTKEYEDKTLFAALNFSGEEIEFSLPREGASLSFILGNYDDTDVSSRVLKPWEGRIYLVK
pIC50: −log10 of the molar value.
# maps each entry to its pIC50
parameter: pIC50

molecule="CC(=O)c1cc2cc(-c3ccc(C)cc3)oc2cc1O [Compound 2f]" parameter=pIC50 limitoperator== assayvalue=4.85
molecule="CC(=O)c1cc2cc(-c3ccccc3)oc2cc1O [Compound 2a]" parameter=pIC50 limitoperator=< assayvalue=4.00
molecule="CC(=O)c1cc2cc(-c3ccc(Cl)cc3)oc2cc1O [Compound 2e]" parameter=pIC50 limitoperator== assayvalue=4.19

====

pKi: −log10 of the molar value.
pKi, α-glucosidase (Saccharomyces cerevisiae, UniProt P53341): measured values
parameter: pKi

itemsmiles=CC(=O)c1cc2cc(-c3ccc(F)cc3)oc2cc1O assayvalue=4.82
itemsmiles=COc1cc(OC)cc(-c2cc3cc(C(C)=O)c(O)cc3o2)c1 assayvalue=5.29

====

# maps each entry to its pIC50
Target protein (sequence): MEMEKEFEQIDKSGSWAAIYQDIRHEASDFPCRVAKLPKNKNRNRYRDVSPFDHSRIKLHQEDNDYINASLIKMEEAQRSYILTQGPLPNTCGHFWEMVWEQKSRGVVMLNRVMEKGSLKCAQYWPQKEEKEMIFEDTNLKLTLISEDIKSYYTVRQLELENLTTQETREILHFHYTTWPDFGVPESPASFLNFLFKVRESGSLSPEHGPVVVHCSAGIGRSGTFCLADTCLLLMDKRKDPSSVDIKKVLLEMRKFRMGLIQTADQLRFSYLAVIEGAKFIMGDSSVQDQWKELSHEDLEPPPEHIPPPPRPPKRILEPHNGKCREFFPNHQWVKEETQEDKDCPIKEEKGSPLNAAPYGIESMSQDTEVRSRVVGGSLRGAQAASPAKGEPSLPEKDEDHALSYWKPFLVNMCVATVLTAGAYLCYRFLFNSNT
pIC50: −log10 of the molar value.
parameter: pIC50

molecule="CC(=O)c1cc2cc(-c3cccc(F)c3)oc2cc1O [Compound 2b]" assayvalue=4.61
molecule="CC(=O)c1cc2cc(-c3ccc(F)cc3)oc2cc1O [Compound 2c]" assayvalue=4.75
molecule="CC(=O)c1cc2cc(-c3ccc(C)cc3)oc2cc1O [Compound 2f]" assayvalue=4.57

====

Target: cyclooxygenase-2 (COX-2) (Homo sapiens, UniProt P35354)
Sequence (P35354 18-604): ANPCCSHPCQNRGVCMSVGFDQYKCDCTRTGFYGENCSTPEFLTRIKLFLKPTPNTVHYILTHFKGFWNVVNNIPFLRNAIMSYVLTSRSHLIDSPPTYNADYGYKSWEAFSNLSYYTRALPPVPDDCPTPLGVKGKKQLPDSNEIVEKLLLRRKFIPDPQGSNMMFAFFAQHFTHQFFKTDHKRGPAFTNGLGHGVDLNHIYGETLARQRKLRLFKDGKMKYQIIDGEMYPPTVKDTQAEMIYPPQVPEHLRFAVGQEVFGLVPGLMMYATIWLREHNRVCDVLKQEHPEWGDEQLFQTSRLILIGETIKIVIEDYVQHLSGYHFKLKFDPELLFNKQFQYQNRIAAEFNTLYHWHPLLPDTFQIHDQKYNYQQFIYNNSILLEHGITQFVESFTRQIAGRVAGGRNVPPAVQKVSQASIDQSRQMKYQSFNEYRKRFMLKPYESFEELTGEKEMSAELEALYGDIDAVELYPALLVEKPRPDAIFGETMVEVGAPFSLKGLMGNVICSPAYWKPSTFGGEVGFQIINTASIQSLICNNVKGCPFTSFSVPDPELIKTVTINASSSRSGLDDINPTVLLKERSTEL
parameter: IC50

itemsmiles=COc1cc(OC)cc(-c2cc3cc(C(C)=O)c(O)cc3o2)c1 assayvalue="99.6 µM"
